- ASSAY_NAME: Probe fluorescence ratio response to arachidonic acid relative to ADIFAB2
- Assay type: binding
- CONDITION_SET: arachidonic acid; response relative to ADIFAB2
Collected DR/DR AA values appear next to each entry.
// no unit string in output, number only

| MOLECULE | DR/DR AA |
| --- | --- |
| 23Y1, 72A (protein, listed as Rattus norvegicus, PEPTIDE (1)...(131) wild-type rat intestinal fatty acid binding protein) AFDGTWKVDRNENYEKFMEKMGYNVVKRKLGAHDNLKLTITQEGNKFTVKESSNFRNIDVVFELGVDFAYSAADGTELTGTWTMEGNKLVGKFKRVDNGKELIAVREISGNELIQTYTYEGVEAKRIFKKE | 0.49 |

API: the following record is the query input.
Incoming: Indicate the recorded DR/DR AA value for this molecule: 72T 73V 74N (protein, listed as Rattus norvegicus, PEPTIDE (1)...(131) wild-type rat intestinal fatty acid binding protein) AFDGTWKVDRNENYEKFMEKMGINVVKRKLGAHDNLKLTITQEGNKFTVKESSNFRNIDVVFELGVDFAYSTVNGTELTGTWTMEGNKLVGKFKRVDNGKELIAVREISGNELIQTYTYEGVEAKRIFKKE
Outgoing: 2.484
